Origin of measurements: patent US8952024B2

Would you mind telling me the reported Plant response rating, Ryegrass, Italian of each entry?
# System: Italian ryegrass (Lolium multiflorum)
# Assay Remarks: Test B pre-/postemergence plant response
# Format: in vivo
# Run Conditions: Postemergence, 125 g ai/ha; scale 0 to 100 (0 no effect, 100 complete control)
Give bare numbers.

Compound	Value
CCCn1c(-c2cccc(OC)c2)ncc(C(=O)C2=C(O)CCCC2=O)c1=O	10
O=C1CCCC(O)=C1C(=O)c1cnc(-c2ccccc2)n(C2CCCCCC2)c1=O	0
O=C1CCCC(O)=C1C(=O)c1cnc(-c2ccsc2)n(C2CCCCC2)c1=O	20
O=C1CCCC(O)=C1C(=O)c1cnc(-c2ccsc2)n(CC2CCCO2)c1=O (centres unmarked)	15

As a next step, examine the compound that follows.
Value lookup for Plant response rating, Ryegrass, Italian; key = O=C1CCCC(O)=C1C(=O)c1cnc(-c2ccsc2)n(C2CCOCC2)c1=O
0
